Target Entity: UniProt:P06401
Procedure Summary: Agonist activity at progesterone receptor expressed in CHO cells by luciferase assay
pEC50: −log10 of the molar value.
Recorded Endpoint: pEC50

Compound | Target Entity | pEC50
O=C(N[C@H]1CCCN2c3cc(Cl)ccc3Cc3ccccc3[C@H]12)C(F)(F)F | UniProt:P06401 | 8.70

1. O=C(N[C@H]1CCCN2c3c(ccc(Cl)c3Cl)Oc3ccccc3[C@H]12)C(F)(F)F
2. O=C(N[C@H]1CCCN2c3c(Cl)cccc3Oc3ccccc3[C@H]12)C(F)(F)F
Qu. Could you kindly indicate whether 1 or 2 has the higher pEC50 value? The response must carry the label of the picked entry.
Ans. 1

###

Target Entity: Progesterone receptor (Homo sapiens)
Procedure Summary: Inhibition of progesterone receptor expressed in CHO cells by luciferase assay
Recorded Endpoint: IC50 (nM)

Sample records with IC50:
Molecule | Target Entity | IC50 / nM
O=C(N[C@H]1CCCN2c3ccc(Cl)cc3Oc3ccccc3[C@H]12)C(F)(F)F | Progesterone receptor (Homo sapiens) | 2220
CC(=O)N[C@H]1CCCN2c3cc(Cl)ccc3Oc3ccccc3[C@H]12 | Progesterone receptor (Homo sapiens) | 193
O=C(N[C@H]1CCCN2c3cc(Cl)ccc3Cc3ccccc3[C@H]12)C(F)(F)F | Progesterone receptor (Homo sapiens) | 26
CC(C)CNC(=S)N[C@H]1CCCN2c3cc(Cl)ccc3Oc3ccccc3[C@H]12 | Progesterone receptor (Homo sapiens) | 314

1. O=C(N[C@H]1CCCN2c3cc(Cl)c(Cl)cc3Oc3ccccc3[C@H]12)C(F)(F)F
2. O=C(N[C@H]1CCCN2c3cc(Cl)ccc3Oc3ccccc3[C@H]12)C(F)(F)F
3. O=C(N[C@H]1CCCN2c3cc(F)ccc3Oc3ccccc3[C@H]12)C(F)(F)F
4. O=C(NC1CCCN2c3cc(Cl)ccc3Oc3ccccc3C12)C(F)(F)F (racemic)
5. N=C(N[C@H]1CCCN2c3cc(Cl)ccc3Oc3ccccc3[C@H]12)C(F)(F)F
Qu. Rank items: key IC50, increasing. Submit the labels in the order that the ranking request calls for.
Ans. 2, 4, 5, 1, 3

###

Target Entity: Progesterone receptor (Homo sapiens, UniProt P06401)
Sequence (P06401 whole entry): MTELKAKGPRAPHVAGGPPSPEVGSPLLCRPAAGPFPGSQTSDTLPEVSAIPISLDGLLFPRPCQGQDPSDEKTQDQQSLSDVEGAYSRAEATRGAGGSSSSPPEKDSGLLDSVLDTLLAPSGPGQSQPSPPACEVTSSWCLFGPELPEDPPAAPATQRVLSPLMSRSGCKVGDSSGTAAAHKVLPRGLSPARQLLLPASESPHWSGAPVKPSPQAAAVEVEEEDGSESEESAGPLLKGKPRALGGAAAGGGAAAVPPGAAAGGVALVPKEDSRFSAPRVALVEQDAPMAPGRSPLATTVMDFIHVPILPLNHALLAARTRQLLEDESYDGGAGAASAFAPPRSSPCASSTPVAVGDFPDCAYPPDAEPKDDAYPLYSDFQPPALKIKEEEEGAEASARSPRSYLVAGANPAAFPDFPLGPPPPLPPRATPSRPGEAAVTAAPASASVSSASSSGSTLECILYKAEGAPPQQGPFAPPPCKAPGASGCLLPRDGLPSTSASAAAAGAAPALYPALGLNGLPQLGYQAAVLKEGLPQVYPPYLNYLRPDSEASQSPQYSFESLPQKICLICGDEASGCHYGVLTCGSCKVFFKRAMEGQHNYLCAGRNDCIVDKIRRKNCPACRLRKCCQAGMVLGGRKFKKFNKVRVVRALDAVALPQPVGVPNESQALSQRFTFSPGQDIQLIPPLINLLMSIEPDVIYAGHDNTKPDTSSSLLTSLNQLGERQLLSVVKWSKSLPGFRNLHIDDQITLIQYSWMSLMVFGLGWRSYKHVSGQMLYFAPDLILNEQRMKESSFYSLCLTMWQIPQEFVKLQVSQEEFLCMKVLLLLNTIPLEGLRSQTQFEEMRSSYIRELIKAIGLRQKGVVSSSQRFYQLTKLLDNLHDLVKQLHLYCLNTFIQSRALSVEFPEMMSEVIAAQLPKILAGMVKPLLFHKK
Procedure Summary: Agonist activity at progesterone receptor expressed in CHO cells by luciferase assay
pEC50: −log10 of the molar value.
Recorded Endpoint: pEC50

Answered examples (2):
Sample Smiles | Target Entity | Recorded Endpoint | Recorded Measurement
O=C(N[C@H]1CCCN2c3cc(Cl)ccc3Oc3ccccc3[C@H]12)OCCl | Progesterone receptor (Homo sapiens, UniProt P06401) | pEC50 | 6.22
CC(C)CN[C@H]1CCCN2c3cc(Cl)ccc3Oc3ccccc3[C@H]12 | Progesterone receptor (Homo sapiens, UniProt P06401) | pEC50 | 5.87

1. O=C(N[C@H]1CCCN2c3ccc(Cl)cc3Oc3ccccc3[C@H]12)C(F)(F)F
2. O=C(N[C@H]1CCCN2c3ccccc3Oc3ccccc3[C@H]12)C(F)(F)F
Qu. Please state the entry with greater pEC50 among 1 and 2 . Returns: label corresponding to the selected item.
Ans. 2

###

Target Entity: UniProt P06401
Procedure Summary: Agonist activity at progesterone receptor expressed in CHO cells by luciferase assay
Assay type: functional, cell-based
pEC50: −log10 of the molar value.
Recorded Endpoint: pEC50

1. CC(=O)c1ccc2c(c1)N1CCC[C@H](NC(=O)C(F)(F)F)[C@H]1c1ccccc1O2
2. CC(=O)c1cccc2c1N1CCC[C@H](NC(=O)C(F)(F)F)[C@H]1c1ccccc1O2
3. CC(=O)N[C@H]1CCCN2c3cc(Cl)ccc3Oc3ccccc3[C@H]12
Qu. Kindly order the items shown according to pEC50, from the highest value down. Reply with the labels, ordered as the question asks.
Ans. 2, 1, 3

###

Target Entity: Progesterone receptor (Homo sapiens)
Procedure Summary: Agonist activity at progesterone receptor expressed in CHO cells by luciferase assay
Recorded Endpoint: EC50 (nM)

Compound | Target Entity | Unit Descriptor | Recorded Measurement
O=C(NC1CCCN2c3cc(Cl)ccc3Oc3ccccc3C12)C(F)(F)F (racemic) | Progesterone receptor (Homo sapiens) | nM | 10.6
O=C(N[C@H]1CCCN2c3cc(Cl)ccc3Sc3ccccc3[C@H]12)C(F)(F)F | Progesterone receptor (Homo sapiens) | nM | 2.8
O=C(N[C@@H]1CCCN2c3cc(Cl)ccc3Oc3ccccc3[C@@H]12)C(F)(F)F (racemic) | Progesterone receptor (Homo sapiens) | nM | 54
O=C(N[C@H]1CCCN2c3cc(F)ccc3Oc3ccccc3[C@H]12)C(F)(F)F | Progesterone receptor (Homo sapiens) | nM | 198
FC(F)(F)C(=S)N[C@H]1CCCN2c3cc(Cl)ccc3Oc3ccccc3[C@H]12 | Progesterone receptor (Homo sapiens) | nM | 1.3
CN1c2ccccc2[C@@H]2[C@@H](NC(=O)C(F)(F)F)CCCN2c2cc(Cl)ccc21 | Progesterone receptor (Homo sapiens) | nM | 9.8
N[C@H]1CCCN2c3cc(Cl)ccc3Oc3ccccc3[C@H]12 | Progesterone receptor (Homo sapiens) | nM | 513

A. N=C(N[C@H]1CCCN2c3cc(Cl)ccc3Oc3ccccc3[C@H]12)C(F)(F)F
B. CN(C(=O)C(F)(F)F)[C@H]1CCCN2c3cc(Cl)ccc3Oc3ccccc3[C@H]12
C. C=Cc1cccc2c1N1CCC[C@H](NC(=O)C(F)(F)F)[C@H]1c1ccccc1O2
D. O=C(N[C@H]1CCCN2c3cc(Cl)c(Cl)cc3Oc3ccccc3[C@H]12)C(F)(F)F
E. O=C(N[C@H]1CCCN2c3cc(Cl)ccc3Oc3ccccc3[C@H]12)C(F)(F)F
Qu. Falling order of EC50, please. Answer format: the labels, in the requested order.
Ans. B, D, A, E, C
